B1: library; a variant is named by its letters at N, in order (parent)
chain: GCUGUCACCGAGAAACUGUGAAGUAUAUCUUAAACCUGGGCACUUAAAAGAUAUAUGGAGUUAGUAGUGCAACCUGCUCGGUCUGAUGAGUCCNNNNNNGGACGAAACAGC

Variants of: B1
Test: normalized RNA/DNA level without ligand (relative to sTRSVctl = 100) (log10 (% of sTRSVctl)); HEK293T; ligand: cyclic di-GMP (c-di-GMP-II aptamer); higher = less ribozyme self-cleavage, higher mRNA level
Details: reporter: mCherry (pCS4076), ligand present: no
metric.name: normalized RNA/DNA level without ligand (log10)

CUAUAA ... 1.41
AAUCGU ... 1.65
GCUCAU ... 1.66
CGUGCA ... 1.68
AGAUAA ... 1.44
CGGACA ... 1.4
UAUUUU ... 1.73
AUGGAA ... 1.33
GUUACC ... 1.79
CGCCUA ... 1.37
UACGCA ... 1.78
ACAUCC ... 1.68
CGAAGA ... 1.37
UGCGAG ... 1.7
AGGGGA ... 1.53
CCACCC ... 1.8
UGCUUU ... 1.73
UUACCG ... 1.8
GCGUUG ... 1.56
CGAGAU ... 1.52
GCAAGG ... 1.41
CGUAAC ... 1.56
